src = patent US20220348670A1

Biological target: T1, full-length human OX40 protein (human, UniProt P43489 29-277)
T1 construct: whole, on cells; also called hOX40; CD134
T1 sequence (looked up): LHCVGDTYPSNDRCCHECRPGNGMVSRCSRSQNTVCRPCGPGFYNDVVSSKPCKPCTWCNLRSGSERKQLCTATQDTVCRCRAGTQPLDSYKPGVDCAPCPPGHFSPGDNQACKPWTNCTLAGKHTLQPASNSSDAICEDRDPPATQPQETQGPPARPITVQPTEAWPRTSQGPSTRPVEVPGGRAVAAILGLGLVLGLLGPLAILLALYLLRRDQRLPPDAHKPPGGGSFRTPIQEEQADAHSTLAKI
Experiment: FACS on Jurkat-hOX40 cells, PE anti-human FC secondary antibody
TEST_READOUT: Maximum mean fluorescence intensity value (MFI)

>>> obs_value("anti-human OX40 antibody BC3-7 (OX40 VHH-Fc) (Fc fusion, VHH fused through a linker to human IgG Fc, expressed in ExpiCHO, purified on Protein A; also called OX40 BC3-7; OX40 VHH-Fc antibody; not shown: linker encoded by the CMV-12GS-FC vector; human IgG FC fragment (hFC)) EVQLVESGGGLVQPGGSLRLSCAASGSIYDFDVMGWFRQAPGKGRELVAAINSFGDITYYPDSVEGRFTISRDNAKRMVYLQMNSLRAEDTAVYYCAADWHVLIQQVLGYWGQGTQVTVSS")
24100
>>> obs_value("anti-human OX40 antibody BC3-6 (OX40 VHH-Fc) (Fc fusion, VHH fused through a linker to human IgG Fc, expressed in ExpiCHO, purified on Protein A; also called OX40 BC3-6; OX40 VHH-Fc antibody; not shown: linker encoded by the CMV-12GS-FC vector; human IgG FC fragment (hFC)) EVQLVESGGGLVQPGGSLRLSCAASGSILDSNLMGWFRQAPGKGRELVASINSYDDNTYYPDSVEGRFTISRDNAKRMVYLQMNSLRAEDTAVYYCAAQVFVGWPYTDQMHDYWGQGTQVTVSS")
12800
>>> obs_value("anti-human OX40 antibody BC3-4 (OX40 VHH-Fc) (Fc fusion, VHH fused through a linker to human IgG Fc, expressed in ExpiCHO, purified on Protein A; also called OX40 BC3-4; OX40 VHH-Fc antibody; not shown: linker encoded by the CMV-12GS-FC vector; human IgG FC fragment (hFC)) EVQLVESGGGLVQPGGSLRLSCAASGFIFSAYFMGWFRQAPGKGRELVAAINSNDDITYYPDSVEGRFTISRDNAKRMVYLQMNSLRAEDTAVYYCAAWLGAENYGYWGQGTQVTVSS")
24000
>>> obs_value("anti-human OX40 antibody BC3-1 (OX40 VHH-Fc) (Fc fusion, VHH fused through a linker to human IgG Fc, expressed in ExpiCHO, purified on Protein A; also called OX40 BC3-1; OX40 VHH-Fc antibody; not shown: linker encoded by the CMV-12GS-FC vector; human IgG FC fragment (hFC)) EVQLVESGGGLVQPGGSLRLSCAASGSIFSVYVMGWFRQAPGKGRELVAAITPFDDNTYYPDSVEGRFTISRDNAKRMVYLQMNSLRAEDTAVYYCAADWEWPEYNYWGQGTQVTVSS")
17500
